Each entry below carries its reported RP-LC retention time.
- test summary: gradient 5% acetonitrile 3 min, to 50% in 2 min, to 85% in 15 min, held 3 min, 100 µL/min
- settings: column: Zorbax Extend-C18 2.1 x 50 mm; eluents: water / acetonitrile, 0.1% formic acid
Put down the number, then write its unit next to it.

- compound: "O=C(NCCc1ccccc1)C(=O)c1ccc[nH]1"
  value measured: "824 s"
- compound: "O=C(NCC(O)c1cccc2ccccc12)c1c(F)cccc1Cl (centres undefined)"
  value measured: "796 s"
- compound: "Fc1ccc(C2CCNCC2COc2ccc3c(c2)OCO3)cc1 (centres undefined)"
  value measured: "778 s"

Now for another entry.
Briefly, RP-LC retention time measured for `O=C(c1ccccc1)N1CCC(CCNS(=O)(=O)Cc2ccccc2)CC1` : 803 s

###

- test summary: gradient 5% acetonitrile 3 min, to 50% in 2 min, to 85% in 15 min, held 3 min, 100 µL/min
- settings: column: Zorbax Extend-C18 2.1 x 50 mm; eluents: water / acetonitrile, 0.1% formic acid
Each entry below carries its reported RP-LC retention time.
Give just the numeric value; s need not be written.

Briefly, RP-LC retention time measured for `CC(C)C(=O)N1CCCc2ccc(NC(=O)c3ccco3)cc21` : 789

Briefly, RP-LC retention time measured for `CCc1cc(N2CCN(C(=O)c3cc(OC)cc(OC)c3)CC2)nc2nncn12` : 601

Briefly, RP-LC retention time measured for CC1CCCN(Cc2nc(Cn3ccn4nc(-c5ccc(F)cc5)cc4c3=O)no2)C1 (stereo unspecified) : 687

Briefly, RP-LC retention time measured for `COc1cc(NC(=O)Nc2nccn(-c3ccc(C)c(C)c3)c2=O)cc(OC)c1` : 955

Briefly, RP-LC retention time measured for `CC1=NS(=O)(=O)N(Cc2ccccc2)C=C1C(=O)OCc1ccc(C)cc1` : 1170

Briefly, RP-LC retention time measured for `CC(=O)Nc1cccc(-c2nc(-c3ccc4c(c3)oc(=O)n4C(C)C)no2)c1` : 936

Briefly, RP-LC retention time measured for Cc1cc(NS(=O)(=O)c2ccc(F)cc2C)n(C2CCS(=O)(=O)C2)n1 (stereo unspecified) : 753

Briefly, RP-LC retention time measured for `COc1ccc2c(ccn2CC(=O)N[C@@H](CC(C)C)C(=O)O)c1` : 756

###

- test summary: gradient 5% acetonitrile 3 min, to 50% in 2 min, to 85% in 15 min, held 3 min, 100 µL/min
- settings: column: Zorbax Extend-C18 2.1 x 50 mm; eluents: water / acetonitrile, 0.1% formic acid
Short version: RP-LC retention time at least 700 s is yes (1), less is no (0).

Below are worked cases with known answers.
- compound: "O=C1NCCCn2cc(S(=O)(=O)N(Cc3ccccc3)c3ccccc3)cc21"
  class assignment: "yes (1)"
- compound: "CCCC(=O)Nc1ccc(-c2nc(Cn3cccn3)c(C)o2)cc1"
  class assignment: "yes (1)"
- compound: "CCCCN1CCN(C(=O)c2nnc(-c3ccc(S(=O)(=O)N(C)C)cc3)o2)CC1"
  class assignment: "no (0)"
- compound: "COc1cc(CN2CCC3(CCC3O)CC2)ccc1OC(C)C (centres undefined)"
  class assignment: "no (0)"

Ask: Can `O=C(C1CCN(c2cc(N3CCCCC3)ncn2)CC1)N1CCCCC1` be said to have RP-LC retention time at or above 700 s?
Result: no (0)

Ask: Can `Cc1noc2nc(C)n(CC(=O)Nc3ccccc3C(F)(F)F)c(=O)c12` be said to have RP-LC retention time at or above 700 s?
Result: yes (1)

Ask: Can CCOC(=O)CCC(=O)N1CCCC(COCc2ccccc2)C1 (centres undefined) be said to have RP-LC retention time at or above 700 s?
Result: yes (1)
